Catalogue of compounds with associated pEC50
- subjectOfTest: S. aureus Alpha hemolysin (Staphylococcus aureus, UniProt P09616)
- Sequence (P09616 27-319 limits assumed): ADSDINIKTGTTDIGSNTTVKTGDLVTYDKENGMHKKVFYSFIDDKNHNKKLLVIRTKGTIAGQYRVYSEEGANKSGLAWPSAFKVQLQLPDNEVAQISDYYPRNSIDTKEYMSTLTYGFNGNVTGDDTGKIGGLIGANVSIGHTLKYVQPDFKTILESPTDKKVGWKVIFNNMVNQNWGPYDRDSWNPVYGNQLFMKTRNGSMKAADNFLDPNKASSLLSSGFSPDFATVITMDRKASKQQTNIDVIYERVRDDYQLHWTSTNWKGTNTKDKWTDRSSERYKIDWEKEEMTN
- testDetails: cell-based
- conditionContext: A549-LDH Assay activity
pEC50: −log10 of the molar value.
quantityKind: pEC50

[[record]]
chemicalsmiles = "O=c1[nH]c2cc(Cl)c(S(=O)(=O)Nc3ccc(-c4cccc(N5CCCC5)c4)c(Cl)c3)cc2[nH]c1=O"
measuredresult = "6.00 to 7.00"

[[record]]
chemicalsmiles = "Cc1cc2[nH]c(=O)c(=O)[nH]c2cc1S(=O)(=O)Nc1ccc(-c2ccc3[nH]ccc3c2)c(Cl)c1"
measuredresult = "7.00 to 7.52"

[[record]]
chemicalsmiles = "C#Cc1cc(NS(=O)(=O)c2cc3[nH]c(=O)c(=O)[nH]c3cc2C)ccc1-c1ccc(F)cc1"
measuredresult = "> 7.52"

[[record]]
chemicalsmiles = "Cc1cc2[nH]c(=O)c(=O)[nH]c2cc1S(=O)(=O)Nc1ccc(-c2ccc(F)c(Cl)c2F)c(Cl)c1"
measuredresult = "6.00 to 7.00"

[[record]]
chemicalsmiles = "Cc1cc2[nH]c(=O)c(=O)[nH]c2cc1S(=O)(=O)Nc1ccc(-c2cccc(CN)c2)c(Cl)c1"
measuredresult = "6.00 to 7.00"

[[record]]
chemicalsmiles = "Cc1cc2[nH]c(=O)c(=O)[nH]c2cc1S(=O)(=O)Nc1ccc(-c2ccc(F)cc2)c(N(C)C)c1"
measuredresult = "6.00 to 7.00"

[[record]]
chemicalsmiles = "O=c1[nH]c2cc(Cl)c(S(=O)(=O)Nc3ccc(C4CCCCC4)cc3)cc2[nH]c1=O"
measuredresult = "6.00 to 7.00"

[[record]]
chemicalsmiles = "Cc1cc2[nH]c(=O)c(=O)[nH]c2cc1S(=O)(=O)Nc1ccc(-c2ccc3c(c2)N(C)CCO3)c(Cl)c1"
measuredresult = "6.00 to 7.00"

[[record]]
chemicalsmiles = "Cc1cc2[nH]c(=O)c(=O)[nH]c2cc1S(=O)(=O)Nc1ccc(-n2ccnc2)c(Cl)c1"
measuredresult = "6.00 to 7.00"

[[record]]
chemicalsmiles = "Cc1cc2[nH]c(=O)c(=O)[nH]c2cc1S(=O)(=O)Nc1ccc(-c2ccc3cccnc3c2)c(Cl)c1"
measuredresult = "6.00 to 7.00"

[[record]]
chemicalsmiles = "COc1cc2[nH]c(=O)c(=O)[nH]c2cc1S(=O)(=O)Nc1ccc(Cl)cc1"
measuredresult = "6.00 to 7.00"

[[record]]
chemicalsmiles = "Cc1cc2[nH]c(=O)c(=O)[nH]c2cc1S(=O)(=O)Nc1ccc(-c2ccc3[nH]c(=O)[nH]c3c2)c(Cl)c1"
measuredresult = "6.00 to 7.00"

[[record]]
chemicalsmiles = "Cc1cc2[nH]c(=O)c(=O)[nH]c2cc1S(=O)(=O)Nc1cc(C)c(-c2sccc2C)c(C)c1"
measuredresult = "6.00 to 7.00"

[[record]]
chemicalsmiles = "Cc1ccccc1-c1ccc(NS(=O)(=O)c2cc3[nH]c(=O)c(=O)[nH]c3cc2C)cc1"
measuredresult = "6.00 to 7.00"

[[record]]
chemicalsmiles = "Cc1cc2[nH]c(=O)c(=O)[nH]c2cc1S(=O)(=O)Nc1ccc(Br)cc1"
measuredresult = "7.00 to 7.52"

[[record]]
chemicalsmiles = "Cc1cc2[nH]c(=O)c(=O)[nH]c2cc1S(=O)(=O)Nc1ccc(-c2cc(F)c3c(c2)NCCO3)c(Cl)c1"
measuredresult = "6.00 to 7.00"

[[record]]
chemicalsmiles = "COc1ccc(-c2ccc(NS(=O)(=O)c3cc4[nH]c(=O)c(=O)[nH]c4cc3C)cc2Br)cc1F"
measuredresult = "> 7.52"

[[record]]
chemicalsmiles = "Cc1cc2[nH]c(=O)c(=O)[nH]c2cc1S(=O)(=O)Nc1ccc(-n2cncn2)cc1"
measuredresult = "5.22 to 6.00"

[[record]]
chemicalsmiles = "Cc1cc2[nH]c(=O)c(=O)[nH]c2cc1S(=O)(=O)Nc1ccc(-c2ccncc2)cc1"
measuredresult = "6.00 to 7.00"

[[record]]
chemicalsmiles = "Cc1cc2[nH]c(=O)c(=O)[nH]c2cc1S(=O)(=O)Nc1ccc(-c2cccc(P(C)(C)=O)c2)c(Cl)c1"
measuredresult = "6.00 to 7.00"

[[record]]
chemicalsmiles = "Cc1cc2[nH]c(=O)c(=O)[nH]c2cc1S(=O)(=O)Nc1ccc(-c2ccc(NC(=O)N(C)C)cc2)c(Cl)c1"
measuredresult = "6.00 to 7.00"

[[record]]
chemicalsmiles = "COc1cc2[nH]c(=O)c(=O)[nH]c2cc1S(=O)(=O)Nc1ccc(C(F)(F)F)cc1"
measuredresult = "6.00 to 7.00"

[[record]]
chemicalsmiles = "Cc1cc2[nH]c(=O)c(=O)[nH]c2cc1S(=O)(=O)Nc1ccc(-c2cccc(S(C)(=O)=O)c2)c(Cl)c1"
measuredresult = "6.00 to 7.00"

[[record]]
chemicalsmiles = "O=c1[nH]c2cc(F)c(S(=O)(=O)Nc3ccc(-c4cccnc4)c(Cl)c3)cc2[nH]c1=O"
measuredresult = "5.22 to 6.00"

[[record]]
chemicalsmiles = "Cc1cc2[nH]c(=O)c(=O)[nH]c2cc1S(=O)(=O)Nc1ccc(-c2cccnc2)c(Cl)c1"
measuredresult = "6.00 to 7.00"

